Molecular target: BACE1 (Homo sapiens (Human))
Sequence (P56817 46-501): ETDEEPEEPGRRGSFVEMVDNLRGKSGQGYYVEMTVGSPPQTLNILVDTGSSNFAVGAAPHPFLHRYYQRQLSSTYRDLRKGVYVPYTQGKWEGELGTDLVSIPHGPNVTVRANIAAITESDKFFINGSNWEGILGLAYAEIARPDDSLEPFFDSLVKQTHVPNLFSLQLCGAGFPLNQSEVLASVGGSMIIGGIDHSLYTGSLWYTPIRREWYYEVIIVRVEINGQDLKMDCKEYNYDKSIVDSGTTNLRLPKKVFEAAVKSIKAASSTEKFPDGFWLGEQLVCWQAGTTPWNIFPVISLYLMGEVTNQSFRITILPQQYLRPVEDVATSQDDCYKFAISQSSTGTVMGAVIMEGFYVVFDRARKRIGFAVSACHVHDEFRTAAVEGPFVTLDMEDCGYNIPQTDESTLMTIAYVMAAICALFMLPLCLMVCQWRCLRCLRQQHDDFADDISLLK
Experiment: BACE1 efficacy assay (FRET-based, commercial BACE1 kit)
Format: biochemical
Details: 10 μM test compound
Procedure: The efficacy assay was performed as a FRET-based assay using a commercially available BACE1 kit (Life Technologies, P2985). 2 μl test compound at 10 μM (final concentration) and 15 μl BACE1 enzyme from the kit (final concentration 3 nM) were preincubated for 15 minutes at room temperature before addition of 15 μl of substrate from the kit (250 nM final concentration) and incubated for additional 90 minutes at room temperature. The assay plate was subsequently read in a Pherastar (Ex540/Em590). […]
MEASURED PARAMETER: inhibition at 10 µM (%)

[
  {
    "MOL SMILES": "NC1=N[C@](CF)(c2cc(NC(=O)c3ccc(F)cn3)ccc2F)C(F)(F)CC1",
    "ASSAY VALUE": 104
  },
  {
    "MOL SMILES": "NC1=N[C@](CF)(c2cc(NC(=O)c3ccn(C(F)F)n3)ccc2F)C(F)(F)CC1",
    "ASSAY VALUE": 104
  },
  {
    "MOL SMILES": "NC1=N[C@](CF)(c2cc(NC(=O)c3cnc(C(F)F)cn3)ccc2F)C(F)(F)CC1",
    "ASSAY VALUE": 103
  },
  {
    "MOL SMILES": "Cc1nc(C(=O)Nc2ccc(F)c([C@@]3(CF)N=C(N)CCC3(F)F)c2)co1",
    "ASSAY VALUE": 96
  },
  {
    "MOL SMILES": "NC1=N[C@](CF)(c2cc(NC(=O)c3ccc(Cl)cn3)cc(F)c2F)C(F)(F)CC1",
    "ASSAY VALUE": 103
  },
  {
    "MOL SMILES": "COc1cnc(C(=O)Nc2cc(F)c(F)c([C@@]3(CF)N=C(N)CCC3(F)F)c2)cn1",
    "ASSAY VALUE": 103
  },
  {
    "MOL SMILES": "NC1=N[C@](CF)(c2cc(NC(=O)c3ccc(F)cn3)cc(F)c2F)C(F)(F)CC1",
    "ASSAY VALUE": 101
  }
]
